The values you see were collected from patent US20220033483A1.

Measured OD 450 nm, listed per entry for reference.
molecular target: T1, cTnI quality control product recombinant protein (human, UniProt P19429 1-210, limits assumed); experiment: capture ELISA, antibody 1000.000 ng/ml, cTnI 0.15 ug/ml
T1 construct: the assay paragraphs only say cTnI; also called cardiac troponin I; cTnI antigen
T1 sequence (P19429 whole entry): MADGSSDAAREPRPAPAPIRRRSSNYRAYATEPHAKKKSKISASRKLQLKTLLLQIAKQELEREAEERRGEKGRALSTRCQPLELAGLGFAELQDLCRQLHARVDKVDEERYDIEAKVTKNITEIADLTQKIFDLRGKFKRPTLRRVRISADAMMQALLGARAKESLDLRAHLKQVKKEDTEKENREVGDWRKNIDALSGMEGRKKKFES
Quick note: give the figure in OD, leave out the unit.

# binder, u, test-result
measured = [
    ("Anti-cTnI 7B9 monoclonal antibody (recombinant, Sample 1) (antibody, mouse IgG1, kappa, V domains shown, Recombinant mouse antibody expressed in CHO cells; also called WT; Anti-cTnI 7B9 antibody) VH: QVQLQQSGTELAKPGASVKFSCKASDYTFSTYWMYWIKQRPGQGLEWIGYLNPSSGHTEYNQRFKDKATLTADKSSSTAYMQLNSLTSEDSAVYYCARKYFGPFAMDYWGQGTSVTVSS VL: EIFLTQSPAIMSASPGEKVTMTCSASTTVSYAHWYQQKSGTSPKRWLYDSSKIASGIPVRFSGSGSGTSYSLTISSMEAEDAATYYCQNWSTQPYTFGGGTKLEIKR", "OD", 2.1),
    ("Mutation 3 (antibody, V domains shown, other CDR sites as WT) VH: QVQLQQSGTELAKPGASVKFSCKASIYTFSTYWMYWIKQRPGQGLEWIGYLNPSSGHTGYNQRFKDKATLTADKSSSTAYMQLNSLTSEDSAVYYCARKYFGPFVMDYWGQGTSVTVSS VL: EIFLTQSPAIMSASPGEKVTMTCSASTTVSYIHWYQQKSGTSPKRWLYDTSKIASGIPVRFSGSGSGTSYSLTISSMEAEDAATYYCQRWSTQPYTFGGGTKLEIKR", "OD", 2.21),
]

Please examine the following record next.
Inquiry: Name the reported OD 450 nm value associated with the binder Mutation 5 (antibody, V domains shown, other CDR sites as WT) VH: QVQLQQSGTELAKPGASVKFSCKASWYTFSTYWMYWIKQRPGQGLEWIGYLNPSSGHTVYNQRFKDKATLTADKSSSTAYMQLNSLTSEDSAVYYCARKYFGPFSMDYWGQGTSVTVSS VL: EIFLTQSPAIMSASPGEKVTMTCSASTTVSYSHWYQQKSGTSPKRWLYDYSKIASGIPVRFSGSGSGTSYSLTISSMEAEDAATYYCQEWSTQPYTFGGGTKLEIKR
Reply text: 1.12
